test: Metabolic stability in human liver microsomes assessed as half life; assay type: ADME, Microsome
measurement.type: half-life

Reported half-life, compound [2H]C([2H])([2H])NC(=O)c1nnc(NC(=O)C2CC2)cc1Nc1cccc(-c2ncn(C)n2)c1OC [DEUCRAVACITINIB] : ____
> 2 h

###

assay: Aqueous solubility of crystalline free base form of compound at pH 7.4; type: physicochemical; conditions: aqueous medium
measurement.type: solubility (µg/mL)
Hi! Could you send only the number? It should be in µg/mL, unit omitted.

Reported solubility, molecule "[2H]C([2H])([2H])NC(=O)c1nnc(NC(=O)C2CC2)cc1Nc1cccc(-c2ncn(C)n2)c1OC" : ____
5.2

###

experiment: Permeability coefficient, Kp across basolateral to apical side in human Caco2 cells; type: ADME, cell-based; conditions: Caco-2, read-out: permeability
measurement.type: Papp B→A (×10⁻⁶ cm/s)
Hi! Could you send only the number? It should be in ×10⁻⁶ cm/s, unit omitted.

Reported Papp B→A, compound "CNC(=O)c1cnc(Nc2cc(C)c(F)cn2)cc1Nc1cccc(C(N)=O)c1OC" : ____
26

Reported Papp B→A, compound "[2H]C([2H])([2H])NC(=O)c1nnc(NC(=O)C2CC2)cc1Nc1cccc(-c2ncn(C)n2)c1OC" : ____
74

###

Would you mind telling me the reported pIC50 of each entry?
molecular target: Non-receptor tyrosine-protein kinase TYK2 (Homo sapiens); test: Inhibition of TYK2 in human whole blood assessed as decrease in IFNalpha-induced STAT5 phosphorylation preincubated for 1 hr followed by stimulation with IFN-alpha for 15 mins by fluorescence analysis
Sequence (P29597 whole entry): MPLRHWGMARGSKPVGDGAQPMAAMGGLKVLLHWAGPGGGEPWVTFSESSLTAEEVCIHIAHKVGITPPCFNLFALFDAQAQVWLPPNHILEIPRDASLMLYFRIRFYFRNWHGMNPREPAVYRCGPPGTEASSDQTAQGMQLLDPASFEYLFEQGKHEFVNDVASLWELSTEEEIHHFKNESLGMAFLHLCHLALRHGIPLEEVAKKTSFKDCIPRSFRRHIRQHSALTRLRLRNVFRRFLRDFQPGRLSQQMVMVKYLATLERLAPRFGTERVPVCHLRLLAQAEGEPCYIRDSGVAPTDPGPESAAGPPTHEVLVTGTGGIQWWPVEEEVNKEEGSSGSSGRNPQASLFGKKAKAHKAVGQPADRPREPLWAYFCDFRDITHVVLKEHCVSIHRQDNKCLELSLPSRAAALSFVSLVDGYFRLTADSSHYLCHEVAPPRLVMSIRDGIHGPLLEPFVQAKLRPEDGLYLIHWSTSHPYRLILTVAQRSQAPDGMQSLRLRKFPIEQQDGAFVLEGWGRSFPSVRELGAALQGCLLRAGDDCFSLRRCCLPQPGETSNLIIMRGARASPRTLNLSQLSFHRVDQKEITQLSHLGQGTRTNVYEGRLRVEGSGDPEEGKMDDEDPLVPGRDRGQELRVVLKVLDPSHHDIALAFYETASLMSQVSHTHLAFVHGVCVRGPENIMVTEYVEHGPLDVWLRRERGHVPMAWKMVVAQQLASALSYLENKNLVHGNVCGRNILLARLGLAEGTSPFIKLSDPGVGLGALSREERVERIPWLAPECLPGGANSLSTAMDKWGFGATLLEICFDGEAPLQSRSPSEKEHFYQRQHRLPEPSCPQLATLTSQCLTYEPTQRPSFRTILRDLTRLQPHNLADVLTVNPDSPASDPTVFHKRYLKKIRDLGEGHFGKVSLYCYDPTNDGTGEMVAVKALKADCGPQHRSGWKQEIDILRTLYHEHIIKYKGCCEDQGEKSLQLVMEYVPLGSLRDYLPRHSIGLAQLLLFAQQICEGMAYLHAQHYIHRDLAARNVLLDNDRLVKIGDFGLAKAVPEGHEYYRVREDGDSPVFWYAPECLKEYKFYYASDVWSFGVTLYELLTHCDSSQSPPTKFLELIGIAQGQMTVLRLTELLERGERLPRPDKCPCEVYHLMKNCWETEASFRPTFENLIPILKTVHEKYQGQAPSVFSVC
Lab note — pIC50 values are minus log10 of concentrations in M.

Reported pIC50, compound "[2H]C([2H])([2H])NC(=O)c1cnc(NC(=O)C2CC2)cc1Nc1cccc(-c2ncn(C)n2)c1OC" : ____
7.89

Reported pIC50, compound "CNC(=O)c1cnc(Nc2cc(C)c(F)cn2)cc1Nc1cccc(-c2nncn2C)c1OC" : ____
6.82

Reported pIC50, compound "CNC(=O)c1cnc(Nc2cc(C)c(F)cn2)cc1Nc1cccc(-c2nnco2)c1OC" : ____
6.77
